Would you mind telling me the reported EC50 of each entry?
tgt: human β3-adrenergic receptor (Homo sapiens, UniProt P13945)
Construct: Full length β3 AR clones (402 amino acids) containing the last 6 amino acids of hβ3—AR are prepared; expressed in transfected cells; host or cells: CHO cells
Sequence (P13945 whole entry): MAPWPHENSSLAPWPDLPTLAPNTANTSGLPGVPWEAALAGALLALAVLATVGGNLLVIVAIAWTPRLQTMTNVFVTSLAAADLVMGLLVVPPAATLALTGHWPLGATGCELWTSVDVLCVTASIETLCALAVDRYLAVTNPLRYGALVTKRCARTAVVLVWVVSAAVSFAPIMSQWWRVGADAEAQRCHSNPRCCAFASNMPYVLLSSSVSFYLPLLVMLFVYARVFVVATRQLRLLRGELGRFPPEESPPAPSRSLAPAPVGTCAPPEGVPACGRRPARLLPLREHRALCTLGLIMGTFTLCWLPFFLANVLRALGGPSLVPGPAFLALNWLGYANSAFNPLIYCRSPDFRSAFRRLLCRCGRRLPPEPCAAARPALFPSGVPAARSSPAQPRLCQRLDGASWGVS
protocol-details: cAMP response (SPA kit) in CHO cells transfected with human β3 adrenergic receptor
Format: cell-based
protocol-conditions: CHO cells expressing human β3-AR; 10^-9 M to 10^-5 M; 30 min at 37° C.; cAMP by SPA; read-out: EC50(β3)
Numbers only here, please. The scale is nM.

Look up EC50 for this molecule: CS(=O)(=O)Nc1cc([C@@H](O)CNCCc2ccc(NC3CCN(c4nc(-c5ccccc5)cs4)CC3)cc2)ccc1O
22

Look up EC50 for this molecule: CCOC(=O)C1CCN(C(=O)N2CCC(Nc3ccc(CCNC[C@H](O)COc4ccc(O)cc4)cc3)CC2)CC1
89

Look up EC50 for this molecule: O=C(NCCCc1cccs1)N1CCC(Nc2ccc(CCNC[C@H](O)COc3ccc(O)cc3)cc2)CC1
10

Look up EC50 for this molecule: CC(C)NC(=O)N1CCC(Nc2ccc(CCNC[C@H](O)COc3ccc(O)cc3)cc2)CC1
90

Look up EC50 for this molecule: CCCCCCCCNC(=O)N1CCC(S(=O)(=O)c2ccc(CCNC[C@H](O)COc3ccc(O)cc3)cc2)CC1
31

Look up EC50 for this molecule: COC(=O)[C@@H]1CCCN1C(=O)N1CCC(Nc2ccc(CCNC[C@H](O)c3ccc(O)c(NS(C)(=O)=O)c3)cc2)CC1
28

Look up EC50 for this molecule: Cc1ccc(S(=O)(=O)N2CCC(Nc3ccc(CCNC[C@H](O)COc4ccc(O)cc4)cc3)CC2)cc1
86

====

tgt: human β3-adrenergic receptor (Homo sapiens, UniProt P13945)
Construct: Full length β3 AR clones (402 amino acids) containing the last 6 amino acids of hβ3—AR are prepared; expressed in transfected cells; host or cells: CHO cells
protocol-details: cAMP response (SPA kit) in CHO cells transfected with human β3 adrenergic receptor
Assay type: cell-based
protocol-conditions: maximal response of compound compared to maximal response of isoproterenol at 10^-5 M; CHO cells, human β3-AR
reported-metric: IA(β3)
Response field accepts a number only; no unit should be typed.

Look up IA(β3) for this compound: O=C(c1n[nH]c2ccccc12)N1CCC(Nc2ccc(CCNC[C@H](O)COc3ccc(O)cc3)cc2)CC1
0.95

Look up IA(β3) for this compound: CNC(=O)N1CCC(Nc2ccc(CCNC[C@H](O)COc3ccc(O)cc3)cc2)CC1
0.85

Look up IA(β3) for this compound: O=C(NCCc1ccc(F)cc1)N1CCC(Nc2ccc(CCNC[C@H](O)COc3ccc(O)cc3)cc2)CC1
0.91

Look up IA(β3) for this compound: CCCCCCCCNC(=O)N1CCC(Nc2ccc(CCNC[C@H](O)c3ccc(O)c(NS(C)(=O)=O)c3)cc2)CC1
1

Look up IA(β3) for this compound: CCCCCCCCNC(=O)N1CCC(C(=O)N2CCC(Nc3ccc(CCNC[C@H](O)COc4ccc(O)cc4)cc3)CC2)CC1
0.92

Look up IA(β3) for this compound: COC(=O)[C@@H]1CCCN1C(=O)N1CCC(Nc2ccc(CCNC[C@H](O)c3ccc(O)c(NS(C)(=O)=O)c3)cc2)CC1
0.99

Look up IA(β3) for this compound: CN(C(=O)CCNC(=O)N1CCC(Nc2ccc(CCNC[C@H](O)COc3ccc(O)cc3)cc2)CC1)c1ccc(Cl)cc1
0.94

Look up IA(β3) for this compound: CC(C)CCNC(=O)N1CCC(Nc2ccc(CCNC[C@H](O)COc3ccc(O)cc3)cc2)CC1
0.96

Look up IA(β3) for this compound: CCCCCCCCNC(=O)N1CCC(S(=O)(=O)c2ccc(CCNC[C@H](O)COc3ccc(O)cc3)cc2)CC1
1

Look up IA(β3) for this compound: CCCCCCNC(=O)N1CCC(S(=O)(=O)c2ccc(CCNC[C@H](O)COc3ccc(O)cc3)cc2)CC1
0.99

Look up IA(β3) for this compound: O=C(O)COc1ccc(CNC(=O)N2CCC(Nc3ccc(CCNC[C@H](O)COc4ccc(O)cc4)cc3)CC2)c(F)c1
1.1

Look up IA(β3) for this compound: CCCCCCNC(=O)N1CCC(Sc2ccc(CCNC[C@H](O)COc3ccc(O)cc3)cc2)CC1
0.84

Look up IA(β3) for this compound: CCCCCCCCNC(=O)N1CCC(Nc2ccc(CCNC[C@H](O)COc3cccc4[nH]c(=O)[nH]c34)cc2)CC1
0.45

Look up IA(β3) for this compound: O=C(NCc1ccc(-n2cccn2)cc1C(F)(F)F)N1CCC(Nc2ccc(CCNC[C@H](O)COc3ccc(O)cc3)cc2)CC1
0.83

Look up IA(β3) for this compound: O=C(NCc1ccc(F)cc1F)N1CCC(Nc2ccc(CCNC[C@H](O)COc3ccc(O)cc3)cc2)CC1
0.84

Look up IA(β3) for this compound: O=C(NCc1cccc(F)c1)N1CCC(Nc2ccc(CCNC[C@H](O)COc3ccc(O)cc3)cc2)CC1
0.86

Look up IA(β3) for this compound: CCCCCCCCNC(=O)N1CCC(Nc2ccc(CCNC[C@H](O)COc3ccc(O)c(NS(C)(=O)=O)c3)cc2)CC1
0.99

Look up IA(β3) for this compound: O=C(NCc1ccc(F)cc1)N1CCC(Oc2ccc(CCNC[C@H](O)COc3ccc(O)cc3)cc2)CC1
0.84

Look up IA(β3) for this compound: COc1cccc(CNC(=O)N2CCC(Nc3ccc(CCNC[C@H](O)COc4ccc(O)cc4)cc3)CC2)c1
0.8

Look up IA(β3) for this compound: O=C(NCc1ccc(F)cc1)N1CCC(Sc2ccc(CCNC[C@H](O)COc3ccc(O)cc3)cc2)CC1
0.72

Look up IA(β3) for this compound: CCCCCCCCS(=O)(=O)N1CCC(Nc2ccc(CCNC[C@H](O)COc3ccc(O)cc3)cc2)CC1
0.78

Look up IA(β3) for this compound: O=C(NCc1ccc(Cl)cc1Cl)N1CCC(Nc2ccc(CCNC[C@H](O)COc3ccc(O)cc3)cc2)CC1
0.91

Look up IA(β3) for this compound: O=C([C@@H]1CCCN1S(=O)(=O)c1ccc(F)cc1)N1CCC(Nc2ccc(CCNC[C@H](O)COc3ccc(O)cc3)cc2)CC1
0.97

Look up IA(β3) for this compound: CCOC(=O)C1CCCN(C(=O)N2CCC(Nc3ccc(CCNC[C@H](O)c4ccc(O)c(NS(C)(=O)=O)c4)cc3)CC2)C1 (some centres unmarked)
1

Look up IA(β3) for this compound: CS(=O)(=O)Nc1cc([C@@H](O)CNCCc2ccc(NC3CCN(C(=O)N4CCC(C(=O)O)CC4)CC3)cc2)ccc1O
0.82

Look up IA(β3) for this compound: Cc1ccsc1C(=O)N1CCC(Sc2ccc(CCNC[C@H](O)COc3ccc(O)cc3)cc2)CC1
0.79

Look up IA(β3) for this compound: COc1ccc(CCCCNC(=O)N2CCC(Nc3ccc(CCNCC(O)COc4ccc(O)cc4)cc3)CC2)cc1OC (centres unmarked)
0.94

Look up IA(β3) for this compound: O=C(NCC1(c2ccccc2)CCCC1)N1CCC(Sc2ccc(CCNC[C@H](O)COc3ccc(O)cc3)cc2)CC1
0.81

Look up IA(β3) for this compound: COc1c(C(=O)N2CCC(Nc3ccc(CCNC[C@H](O)COc4ccc(O)cc4)cc3)CC2)sc2ccccc12
0.79
